biological target: T1, EGFR extracellular domain (with an amino acid sequence of 25-645) (human, UniProt P00533 25-645); assay: SPR, Biacore T200; EGFR extracellular domain on CM5 chip, rLZ-8 protein as analyte
T1 construct: range 25-645; Coupled on a CM5 chip; also called epidermal growth factor receptor extracellular domain; ligand (on the chip)
MEASURED ENDPOINT: Kd (nM)
Entry rule: numbers only, all in nM.

Query block: # lookup: Kd of rLZ-8 (D45A) (other, Alanine mutant of rLZ-8) MSDTALIFRLAWDVKKLSFDYTPNWGRGNPNNFIDTVTFPKVLTAKAYTYRVAVSGRNLGVKPSYAVESDGSQKVNFLEYNSGYGIADTNTIQVFVVDPDTNNDFIIAQWN
Result block: 620

Query block: # lookup: Kd of rLZ-8 (R9A) (other, Alanine mutant of rLZ-8) MSDTALIFALAWDVKKLSFDYTPNWGRGNPNNFIDTVTFPKVLTDKAYTYRVAVSGRNLGVKPSYAVESDGSQKVNFLEYNSGYGIADTNTIQVFVVDPDTNNDFIIAQWN
Result block: 8.63

Query block: # lookup: Kd of rLZ-8 (K41D/K46E/K74E) (other, Mutant of rLZ-8) MSDTALIFRLAWDVKKLSFDYTPNWGRGNPNNFIDTVTFPDVLTDEAYTYRVAVSGRNLGVKPSYAVESDGSQEVNFLEYNSGYGIADTNTIQVFVVDPDTNNDFIIAQWN
Result block: 12.2

Query block: # lookup: Kd of rLZ-8 (S18A) (other, Alanine mutant of rLZ-8) MSDTALIFRLAWDVKKLAFDYTPNWGRGNPNNFIDTVTFPKVLTDKAYTYRVAVSGRNLGVKPSYAVESDGSQKVNFLEYNSGYGIADTNTIQVFVVDPDTNNDFIIAQWN
Result block: 489

Query block: # lookup: Kd of rLZ-8 (K16A/S18A/K41A/D45A) (other, Alanine mutant of rLZ-8, made by the same fermentation and purification as rLZ-8) MSDTALIFRLAWDVKALAFDYTPNWGRGNPNNFIDTVTFPAVLTAKAYTYRVAVSGRNLGVKPSYAVESDGSQKVNFLEYNSGYGIADTNTIQVFVVDPDTNNDFIIAQWN
Result block: 30600

Query block: # lookup: Kd of rLZ-8 (L17K) (other, Surface potential mutant of rLZ-8) MSDTALIFRLAWDVKKKSFDYTPNWGRGNPNNFIDTVTFPKVLTDKAYTYRVAVSGRNLGVKPSYAVESDGSQKVNFLEYNSGYGIADTNTIQVFVVDPDTNNDFIIAQWN
Result block: 7.49

Query block: # lookup: Kd of rLZ-8 (L17K/D70K) (other, Surface potential mutant of rLZ-8) MSDTALIFRLAWDVKKKSFDYTPNWGRGNPNNFIDTVTFPKVLTDKAYTYRVAVSGRNLGVKPSYAVESKGSQKVNFLEYNSGYGIADTNTIQVFVVDPDTNNDFIIAQWN
Result block: 1.53
